Reference for the values: PubChem BioAssay (NCI)

- System: SN12C renal
- experiment.description: NCI tumour cell line growth inhibition, 48 h; in the data active = GI50 below about 0.43 µM; inactive = the rest
Permitted responses: 1 (yes) for active, 0 (no) for inactive

O=c1cc(-c2ccccc2)oc2cc(OC/C(=N/O)c3ccccc3)ccc12
0 (no)

Exercise: Tell me the recorded outcome of this test for `COc1ccc(-c2onc(N)c2-c2cc(OC)c3c(c2)OCO3)cc1` .
Key: 0 (no)

Exercise: Tell me the recorded outcome of this test for Nc1nc2c(nnn2C2CC(O)C(CO)O2)c(=O)[nH]1 (centres undefined) .
Key: 0 (no)

Exercise: Tell me the recorded outcome of this test for `O=C(O)/C=C(\c1nc2ccc([N+](=O)[O-])cc2[nH]1)c1cc(Cl)ccc1O` .
Key: 0 (no)

Exercise: Tell me the recorded outcome of this test for `Cc1ccc(C(=O)NC(C)C)cc1-c1ccc(C(=O)NCC2CC2)cc1` .
Key: 0 (no)

Exercise: Tell me the recorded outcome of this test for `COc1cc2ncn(-c3cc(OCc4cccs4)c(C(N)=O)s3)c2cc1OC` .
Key: 0 (no)
